Tested on: Staphylococcus aureus
Test: Antibacterial activity against methicillin-resistant Staphylococcus aureus ATCC 33592 assessed as inhibition of visible growth incubated for 18 hrs by CLSI protocol based microbroth dilution method
Assay type: functional
Quantity Kind: MIC

Note to self: MIC recorded for C[C@H]1COc2c(N3CCN(C)CC3)c(F)cc3c(=O)c(C(=O)N[C@@H](CCN)C(=O)N[C@@H](CCN)C(N)=O)cn1c23 was > 128 µg/mL

Sure, the documented MIC for C[C@H]1COc2c(N3CCN(C)CC3)c(F)cc3c(=O)c(C(=O)N[C@@H](CCN)C(N)=O)cn1c23 is > 128 µg/mL

What the record says about C[C@H]1COc2c(N3CCN(C)CC3)c(F)cc3c(=O)c(C(=O)N[C@H](CN)CCC(=O)O)cn1c23 : MIC is > 128 µg/mL

Looking up C[C@H]1COc2c(N3CCN(C)CC3)c(F)cc3c(=O)c(C(=O)N[C@@H](CCC(=O)O)C(=O)N[C@H](CN)CCC(=O)O)cn1c23 , I found its MIC recorded as > 128 µg/mL

Query C[C@H]1COc2c(N3CCN(C)CC3)c(F)cc3c(=O)c(C(=O)O)cn1c23.C[C@H]1COc2c(N3CCN(C)CC3)c(F)cc3c(=O)c(C(=O)O)cn1c23.O yields MIC of ≤ 0.25 µg/mL

Briefly, MIC measured for C[C@H]1COc2c(N3CCN(C)CC3)c(F)cc3c(=O)c(C(=O)NCCCCCCCCCCCC(=O)N[C@@H](CCN)C(N)=O)cn1c23 : > 128 µg/mL

Kindly note the recorded MIC for C[C@H]1COc2c(N3CCN(C)CC3)c(F)cc3c(=O)c(C(=O)NCCCCCCCCCCCC(=O)N[C@@H](CCN)C(=O)N[C@@H](CCN)C(N)=O)cn1c23 , which is > 128 µg/mL
